Target: T1, human BAFF receptor (BAFFR) (human, UniProt Q96RJ3 1-184)
T1 sequence: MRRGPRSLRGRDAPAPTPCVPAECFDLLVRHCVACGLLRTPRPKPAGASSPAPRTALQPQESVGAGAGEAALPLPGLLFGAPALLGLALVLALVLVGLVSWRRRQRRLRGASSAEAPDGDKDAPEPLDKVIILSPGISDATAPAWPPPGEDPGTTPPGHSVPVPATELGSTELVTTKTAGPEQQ
Test: cell-based or functional assay
// classify: if (B-cell proliferation Inhibition IC50 < 1 nM) yes else no

Binder	Assigned class
MOR07349 Fab (Fab, V domains shown, Human Fab format) VH: QVQLQQSGPGLVKPSQTLSLTCAISGDSVSSNSAAWGWIRQSPGRGLEWLGRIYYRSKWWNDYAVSVKSRITINPDTSKNQFSLQLNSVTPEDTAVYYCARYDWVPKIGVFDGWGQGTLVTVSS VL: DIVLTQSPATLSLSPGERATLSCRASQMIDLRYLSWYQQKPGQAPRLLIYGSSSRATGVPARFSGSGSGTDFTLTISSLEPEDFAVYYCQQFYSSPLTFGQGTKVEIK	no
MOR06743 Fab (Fab, V domains shown, Human Fab format; also called MOR6743) VH: QVQLQQSGPGLVKPSQTLSLTCAISGDSVSSNSAAWGWIRQSPGRGLEWLGRIYYRSKWYNSYAVSVKSRITINPDTSKNQFSLQLNSVTPEDTAVYYCARYDWVPKIGVFDSWGQGTLVTVSS VL: DIVLTQSPATLSLSPGERATLSCRASQMIDLRYLSWYQQKPGQAPRLLIYGSSSRATGVPARFSGSGSGTDFTLTISSLEPEDFAVYYCQQLYSSPMTFGQGTKVEIK	no
MOR07342 Fab (Fab, V domains shown, Human Fab format) VH: QVQLQQSGPGLVKPSQTLSLTCAISGDSVSSNSAAWGWIRQSPGRGLEWLGRIYYRSKWYNNYAVSVKSRITINPDTSKNQFSLQLNSVTPEDTAVYYCARYKWVPKIGVFDSWGQGTLVTVSS VL: DIVLTQSPATLSLSPGERATLSCRASQMIDLRYLSWYQQKPGQAPRLLIYGSSSRATGVPARFSGSGSGTDFTLTISSLEPEDFAVYYCQQFYSSPLTFGQGTKVEIK	yes
MOR07348 Fab (Fab, V domains shown, Human Fab format; also called MOR7348; MOR007348) VH: QVQLQQSGPGLVKPSQTLSLTCAISGDSVSSNSAAWGWIRQSPGRGLEWLGRIYYRSKWYNSYAVSVKSRITINPDTSKNQFSLQLNSVTPEDTAVYYCARYDWVPKIGVFDLWGQGTLVTVSS VL: DIVLTQSPATLSLSPGERATLSCRASQWIEAGYLSWYQQKPGQAPRLLIYGSSSRATGVPARFSGSGSGTDFTLTISSLEPEDFAVYYCQQLYSSPMTFGQGTKVEIK	no
MOR07347 Fab (Fab, V domains shown, Human Fab format) VH: QVQLQQSGPGLVKPSQTLSLTCAISGDSVSSNSAAWGWIRQSPGRGLEWLGRIYYRSKWYNSYAVSVKSRITINPDTSKNQFSLQLNSVTPEDTAVYYCARYQWVPKIGVFDSWGQGTLVTVSS VL: DIVLTQSPATLSLSPGERATLSCRASQEILPEYLSWYQQKPGQAPRLLIYGSSSRATGVPARFSGSGSGTDFTLTISSLEPEDFAVYYCQQFYSSPLTFGQGTKVEIK	no
